Each entry below carries its measured pKd, system: LsrK (Salmonella typhimurium, UniProt Q8ZKQ6).
Sequence (Q8ZKQ6 whole entry): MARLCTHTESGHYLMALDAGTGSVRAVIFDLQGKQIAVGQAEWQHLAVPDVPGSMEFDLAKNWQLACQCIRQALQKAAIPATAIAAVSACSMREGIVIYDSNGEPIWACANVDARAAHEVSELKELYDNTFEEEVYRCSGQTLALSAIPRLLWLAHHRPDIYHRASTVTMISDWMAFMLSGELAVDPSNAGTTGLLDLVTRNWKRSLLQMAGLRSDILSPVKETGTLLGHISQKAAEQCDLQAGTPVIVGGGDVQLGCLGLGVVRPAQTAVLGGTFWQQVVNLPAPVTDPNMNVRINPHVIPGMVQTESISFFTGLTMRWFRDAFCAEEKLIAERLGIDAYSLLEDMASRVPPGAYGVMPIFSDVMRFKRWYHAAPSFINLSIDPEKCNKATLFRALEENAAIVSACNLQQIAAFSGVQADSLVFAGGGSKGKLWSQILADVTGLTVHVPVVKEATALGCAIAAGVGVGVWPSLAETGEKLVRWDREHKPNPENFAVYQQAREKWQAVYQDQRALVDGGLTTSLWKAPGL
To interpret pKd, take it as minus log10 of a concentration measured in moles per litre.

Compound	pKd
NC(=O)c1cc(Cc2ccccc2)sc1NC(=O)C1C2CCC(C2)C1C(=O)O (centres unmarked)	5.07

// next entry
Write down the reported pKd of `Cc1c(O)cc(O)c2c(=O)c(O)c(-c3ccc(O)c(O)c3)oc12` , test system: LsrK (Salmonella typhimurium, UniProt Q8ZKQ6).
4.52

###

pIC50 listing for selected compounds.
molecular target: LsrK (Salmonella typhimurium); assay: LsrK inhibition assay (Kinase-Glo luminescence); type: biochemical; conditions: 100 μM ATP; mean ± SD, n = 3; read-out: IC50B
pIC50 field: float, defined as -log10 of concentration (mol/L).

Example entries begin here.
Compound	Measured Quantity	Reported
Cc1c(O)cc(O)c2c(=O)c(O)c(-c3ccc(O)c(O)c3)oc12 [N025-0038]	pIC50	4.36
COC(=O)CSC1=NC(=O)C[C@H](c2ccc(Cl)cc2)[C@H]1C#N [2188–1861]	pIC50	3.89
O=C1NC(=S)S/C1=C\c1c[nH]c2ccc(OCc3ccccc3)cc12 [3681–1274]	pIC50	3.88
O=C(O)[C@@H]1[C@@H](C(=O)Nc2cc(C(F)(F)F)ccc2Cl)[C@H]2C=C[C@@H]1O2 [Y204-6349]	pIC50	4.12
CCOc1ccc(/C=N\NC(=S)Nc2cccc(C(=O)O)c2)cc1O [3284–0335]	pIC50	4.07
O=C(O)C[C@H]1S/C(=N\N=C2\C(=O)Nc3ccccc32)N(c2ccc(O)cc2)C1=O [4515–0182]	pIC50	4.28

Given the entry Cc1ccc(C(=O)O)cc1NC(=O)c1nn2cccnc2c1Cl [Y502-2013] , report its measured pIC50.
3.85

I am curious: what pIC50 value has been reported for Cc1[nH]c(C(=O)N/N=C\c2ccc(O)c(O)c2)c(C)c1C(=O)N/N=C\c1ccc(O)c(O)c1 [5617–0915] ?
4.10

Recorded pIC50 of C/C(=N/NC(=S)Nc1cccc(C(=O)O)c1)c1ccc(C)cc1 [3284–1358] , please.
4.38

###

target: LsrK (Salmonella typhimurium); experiment: LsrK inhibition assay (Kinase-Glo luminescence); assay type: biochemical; details: Supplementary Table 1; 200 uM compound, 100 μM ATP; mean ± SD, n = 3; * = colour of the compound interferes with luminescence
Catalogue of Inhibition (%) values
The response must be a number in % with no trailing unit.

Recorded Inhibition (%), per entry:
Compound	Inhibition (%)
CN(C)C(=O)C1CCCN1Cc1nc2sc(-c3ccccc3)cc2c(=O)[nH]1 (stereo not shown) [Z196022762]	57.11
O=C(NC(Cc1c[nH]c2ccccc12)C(=O)O)c1ccccc1Cl (stereo not shown) [Z85881721]	10.12
O=C(O)CCn1c(=O)[nH]c(=O)c2ccccc21 [Z166653136]	0

Looking for the measured Inhibition (%) of CC(C)c1ccc2nc(Cc3cccc(C(N)=O)c3)[nH]c(=O)c2c1 [Z951211480] , can you help?
0

###

biological target: LsrK (Salmonella typhimurium, UniProt Q8ZKQ6); experiment: LsrK inhibition assay (Kinase-Glo luminescence); type: biochemical; details: Table 1; hits at 200 μM with 100 μM ATP; mean ± SD, n = 3
Measured Quantity: inhibition at 200 µM (%)
# output: bare number, implied unit %

Sample answers from the record:
Compound	Measured Quantity	Reported
Cc1ccc(C(=O)O)cc1NC(=O)c1nn2cccnc2c1Cl [Y502-2013]	inhibition at 200 µM	69.1
O=C(O)[C@@H]1[C@@H](C(=O)Nc2cc(C(F)(F)F)ccc2Cl)[C@H]2C=C[C@@H]1O2 [Y204-6349]	inhibition at 200 µM	87.4
C/C(=N/NC(=S)Nc1cccc(C(=O)O)c1)c1ccc(C)cc1 [3284–1358]	inhibition at 200 µM	101
Cc1[nH]c(C(=O)N/N=C\c2ccc(O)c(O)c2)c(C)c1C(=O)N/N=C\c1ccc(O)c(O)c1 [5617–0915]	inhibition at 200 µM	71.5
COC(=O)CSC1=NC(=O)C[C@H](c2ccc(Cl)cc2)[C@H]1C#N [2188–1861]	inhibition at 200 µM	92.1

# lookup: inhibition at 200 µM of CCOc1ccc(/C=N\NC(=S)Nc2cccc(C(=O)O)c2)cc1O [3284–0335]
67.6

# lookup: inhibition at 200 µM of Cc1c(CC(=O)O)c(=O)oc2cc(OCc3ccc(C(=O)O)o3)ccc12 [Y040-9027]
94.1

Name the recorded inhibition at 200 µM for O=C1NC(=S)S/C1=C\c1c[nH]c2ccc(OCc3ccccc3)cc12 [3681–1274] .
66.2

Recorded inhibition at 200 µM for NC(=O)c1cc(Cc2ccccc2)sc1NC(=O)C1C2CCC(C2)C1C(=O)O (stereo not drawn) [Y205-6768] , please?
101

Consider the compound O=C(O)C[C@H]1S/C(=N\N=C2\C(=O)Nc3ccccc32)N(c2ccc(O)cc2)C1=O [4515–0182] and give its measured inhibition at 200 µM.
83.7

Given the entry Cc1c(O)cc(O)c2c(=O)c(O)c(-c3ccc(O)c(O)c3)oc12 [N025-0038] , report its measured inhibition at 200 µM.
80.5

# query: inhibition at 200 µM of entry O=C(O)CCc1ccc(-c2ccccc2)n1CC(=O)Nc1ccccc1C(F)(F)F [D135-0149]
83.9

###

Listed here: items and their measured pIC50.
molecular target: LsrK (Salmonella typhimurium); assay: LsrK inhibition assay (Kinase-Glo luminescence); format: biochemical; conditions: 50 μM ATP; mean ± SD, n = 3; read-out: IC50A
Recall that pIC50 is obtained by taking minus log10 of the concentration measured in molar.

Past entries and their recorded results:
Compound	Assay Target	pIC50
Cc1c(O)cc(O)c2c(=O)c(O)c(-c3ccc(O)c(O)c3)oc12 [N025-0038]	LsrK (Salmonella typhimurium)	4.57
O=C(O)CCc1ccc(-c2ccccc2)n1CC(=O)Nc1ccccc1C(F)(F)F [D135-0149]	LsrK (Salmonella typhimurium)	4.66
C/C(=N/NC(=S)Nc1cccc(C(=O)O)c1)c1ccc(C)cc1 [3284–1358]	LsrK (Salmonella typhimurium)	4.52

Next compound, please.
Please report the recorded pIC50 for NC(=O)c1cc(Cc2ccccc2)sc1NC(=O)C1C2CCC(C2)C1C(=O)O (stereo not shown) [Y205-6768] .
5.06

###

// values below are reported pIC50
target: LsrK (Salmonella typhimurium, UniProt Q8ZKQ6); assay: LsrK inhibition assay (Kinase-Glo luminescence); format: biochemical; conditions: 100 μM ATP; mean ± SD, n = 3; read-out: IC50B
Please report pIC50 as the negative decimal logarithm of the molar concentration, giving only the number.

These solved cases illustrate the format of a correct answer.
Molecule	Reported
NC(=O)c1cc(Cc2ccccc2)sc1NC(=O)C1C2CCC(C2)C1C(=O)O (stereo not drawn) [Y205-6768]	4.77
O=C(O)CCc1ccc(-c2ccccc2)n1CC(=O)Nc1ccccc1C(F)(F)F [D135-0149]	4.48

We next turn to a different molecule, shown below.
Using the record for Cc1c(CC(=O)O)c(=O)oc2cc(OCc3ccc(C(=O)O)o3)ccc12 [Y040-9027] , report its pIC50.
4.05

###

biological target: LsrK (Salmonella typhimurium, UniProt Q8ZKQ6); experiment: LsrK inhibition assay (Kinase-Glo luminescence); assay type: biochemical; conditions: 150 μM ATP; mean ± SD, n = 3; read-out: IC50C
Measured Quantity: pIC50
Would you please state pIC50, meaning minus log10 of the concentration in mol/L, as a bare number?

In the examples that follow, each entry is paired with its recorded pIC50.
Molecule	pIC50
Cc1c(O)cc(O)c2c(=O)c(O)c(-c3ccc(O)c(O)c3)oc12	4.17
C/C(=N/NC(=S)Nc1cccc(C(=O)O)c1)c1ccc(C)cc1	4.06
NC(=O)c1cc(Cc2ccccc2)sc1NC(=O)C1C2CCC(C2)C1C(=O)O (stereo not shown)	4.58

Turning now to a further record.
# lookup: pIC50 of `O=C(O)CCc1ccc(-c2ccccc2)n1CC(=O)Nc1ccccc1C(F)(F)F`
4.10
